Reference source: patent US20250171438A1

Target: human PAH with the R408W mutation (Homo sapiens, UniProt P00439, R408W)
Construct: expressed in transfected cells
Sequence (P00439 1-452 R408W): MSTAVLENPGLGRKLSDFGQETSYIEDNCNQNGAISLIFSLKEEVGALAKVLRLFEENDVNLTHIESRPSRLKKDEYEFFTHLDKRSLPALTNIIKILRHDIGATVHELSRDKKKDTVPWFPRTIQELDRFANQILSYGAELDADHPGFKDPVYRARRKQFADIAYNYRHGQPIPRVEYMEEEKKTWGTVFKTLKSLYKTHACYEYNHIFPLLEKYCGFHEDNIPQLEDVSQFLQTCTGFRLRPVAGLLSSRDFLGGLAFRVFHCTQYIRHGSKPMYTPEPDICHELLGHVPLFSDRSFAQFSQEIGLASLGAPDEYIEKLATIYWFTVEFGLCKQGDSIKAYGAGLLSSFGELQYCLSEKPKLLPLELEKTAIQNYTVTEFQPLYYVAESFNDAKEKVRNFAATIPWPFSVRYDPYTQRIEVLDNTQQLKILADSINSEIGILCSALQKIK
Test: Cell Based Phenylalanine Flux Assay
Conditions: A375 cells expressing human R408W PAH; 24 hrs with compound; 13C-Tyrosine by LC-MS; average where tested multiple times; read-out: AC50
RECORDED_ENDPOINT: AC50

Cc1ncc(CC(=O)N2CCc3[nH]cnc3C2c2nc3ccccc3s2)o1 (centres unmarked): > 5 µM
Cc1nc(-c2ccccn2)c(C(=O)N2CCc3[nH]cnc3C2c2nc3c(F)cccc3s2)o1 (centres unmarked): 1 to 5 µM
Cc1cnc(C(=O)N2CCc3[nH]cnc3[C@H]2c2nc3ccccc3[nH]2)s1: 1 to 5 µM
O=C(Cc1nccs1)N1CCc2[nH]cnc2C1c1nc2ccc(F)cc2s1 (centres unmarked): 1 to 5 µM

Turning now to a further molecule:
Query: Given the entry O=C(c1nncs1)N1CCc2[nH]cnc2C1c1nc2ccccc2[nH]1 (centres unmarked) , report its measured AC50.
Response: > 5 µM

---

The reader will find reported AC50 values listed item by item below.
biological target: human PAH with the R408W mutation (Homo sapiens, UniProt P00439, R408W); construct: expressed in transfected cells; experiment: Cell Based Phenylalanine Flux Assay; conditions: A375 cells expressing human R408W PAH; 24 hrs compound incubation; 13C-Tyrosine by LC-MS; average where tested multiple times; read-out: AC50

Use the examples below as a reference point.
O=C(CCc1ccc(F)cc1)N1CCc2[nH]cnc2[C@H]1c1nc2ccccc2s1 [Example 1005]: 500 to 1000 nM
Cn1nncc1C(=O)N1CCc2[nH]cnc2[C@H]1c1nc2c(F)cccc2s1 [Example 1725]: 500 to 1000 nM
Cc1cccc2sc([C@H]3c4nc[nH]c4CCN3C(=O)c3cnco3)nc12 [Example 2014]: > 5000 nM

Query: Quick check: AC50 of O=C(c1cnn2ccc(Br)cc12)N1CCc2[nH]cnc2[C@@H]1c1nc2ccc(Br)cc2[nH]1 [Example 998] ?
Response: > 5000 nM

Query: Reported AC50, compound CN(C)CCc1ccc2c(C(=O)N3CCc4[nH]cnc4[C@@H]3c3nc4ccccc4s3)cnn2c1 [Example 1454] : ____
Response: > 5000 nM

Query: Would you kindly share the measured AC50 for O=C(c1oc(NC2CC2)nc1C(F)(F)F)N1CCCc2[nH]cnc2[C@@H]1c1nc2ccccc2s1 [Example 2128] ?
Response: 1000 to 5000 nM

Query: Which value of AC50 has been reported for O=C(c1ncc(Cl)s1)N1CCc2[nH]cnc2[C@H]1c1nc2ccccc2[nH]1 [Example 921] in the records?
Response: 500 to 1000 nM

Query: // AC50 lookup, key: O=C(CCc1nccs1)N1CCc2[nH]cnc2[C@H]1c1nc2c(F)cccc2s1 [Example 1077]
Response: 1000 to 5000 nM

---

Target: human PAH with the R408W mutation (Homo sapiens, UniProt P00439, R408W)
Construct: expressed in transfected cells
Sequence (P00439 1-452 R408W): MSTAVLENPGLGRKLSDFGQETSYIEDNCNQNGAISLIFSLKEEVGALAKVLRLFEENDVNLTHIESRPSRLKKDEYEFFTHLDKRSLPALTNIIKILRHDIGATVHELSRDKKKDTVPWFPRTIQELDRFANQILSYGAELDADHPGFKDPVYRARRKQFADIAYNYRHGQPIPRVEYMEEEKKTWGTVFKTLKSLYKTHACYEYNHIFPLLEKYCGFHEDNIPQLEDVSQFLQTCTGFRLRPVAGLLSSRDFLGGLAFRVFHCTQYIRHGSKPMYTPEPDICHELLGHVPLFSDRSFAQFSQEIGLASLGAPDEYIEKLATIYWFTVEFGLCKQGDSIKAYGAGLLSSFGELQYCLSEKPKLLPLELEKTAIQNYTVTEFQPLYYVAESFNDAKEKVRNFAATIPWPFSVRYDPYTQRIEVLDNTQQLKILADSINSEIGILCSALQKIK
Experiment: Cell Based Phenylalanine Flux Assay
Details: A375 cells expressing human R408W PAH; 24 hrs compound incubation; 13C-Tyrosine by LC-MS; average where tested multiple times; read-out: AC50
RECORDED_ENDPOINT: AC50

O=C(c1nnc(-c2ccccn2)o1)N1CCc2[nH]cnc2[C@H]1c1nc2cccc(F)c2s1: < 500 nM
CN(C)CCn1nccc1C(=O)N1CCc2[nH]cnc2[C@@H]1c1nc2c(F)cccc2s1: 1000 to 5000 nM
O=C(c1cnsc1)N1CCc2[nH]cnc2[C@@H]1c1nc2ccccc2s1: > 5000 nM

Next:
Query: So what does the record say about AC50 for `Cn1nc(CF)cc1C(=O)N1CCc2[nH]cnc2[C@H]1c1nc2c(F)cccc2s1` ?
Response: 500 to 1000 nM

---

target: human PAH with the R408W mutation (Homo sapiens, UniProt P00439, R408W); construct: expressed in transfected cells; test: Cell Based Phenylalanine Flux Assay; details: A375 cells expressing human R408W PAH; 24 hrs compound incubation; 13C-Tyrosine by LC-MS; average where tested multiple times; read-out: AC50
Quick reference for AC50 among some compounds

Example entries and their recorded answers appear below.
C[C@H]1CN(C(=O)c2nnc(-c3cnn(C)c3)o2)[C@@H](c2nc3ccccc3s2)c2nc[nH]c21 [Example 1751]: > 5 µM
Cc1nc(Br)c(C(=O)N2CCc3[nH]cnc3[C@H]2c2nc3c(F)cccc3s2)o1 [Example 1760]: < 0.5 µM
Cc1ccc(-c2nnc(C(=O)N3CCc4[nH]cnc4[C@@H]3c3nc4ccccc4s3)o2)nc1 [Example 1879]: 1 to 5 µM
O=C(c1n[nH]c2ccccc12)N1CCc2[nH]cnc2[C@@H]1c1nc2ccccc2s1 [Example 1050]: > 5 µM
c1ccc2[nH]c([C@H]3c4nc[nH]c4CCN3Cc3nccs3)nc2c1 (single isomer, unassigned) [Example 926]: > 5 µM

Query: Tell me the measured AC50 of c1ccc2[nH]c([C@H]3c4nc[nH]c4CCN3c3nc4ccccc4o3)nc2c1 [Example 987] , please.
Response: > 5 µM

Query: Which value of AC50 has been reported for Cc1nc(-c2ccccn2)oc1C(=O)N1CCc2[nH]cnc2[C@@H]1c1nc2ccccc2s1 [Example 1372] in the records?
Response: > 5 µM

Query: Can you look up the measured AC50 of O=C(c1cnn2ccccc12)N1CCc2[nH]cnc2[C@H]1c1nc2ccc(F)cc2s1 [Example 1099] for me?
Response: 1 to 5 µM

Query: Can you share its AC50? I mean this compound: Cc1nc(C)c(C(=O)N2CCc3[nH]cnc3[C@@H]2c2nc3ccccc3s2)s1 [Example 1178]
Response: > 5 µM

Query: Look up AC50: Cc1ncoc1C(=O)N1CCc2[nH]cnc2[C@H]1c1nc2c(F)cccc2s1 [Example 1319]
Response: < 0.5 µM

Query: Name the reported AC50 value associated with the compound CC(C)(O)c1nc(Br)c(C(=O)N2CCc3[nH]cnc3[C@@H]2c2nc3c(F)cccc3s2)o1 [Example 1898]
Response: 1 to 5 µM

Query: Name the reported AC50 value associated with the compound O=C(c1cnn2c(Br)cccc12)N1CCc2[nH]cnc2[C@@H]1c1nc2ccc(F)cc2s1 [Example 1150]
Response: > 5 µM

Query: Reported AC50, compound O=C(c1ccno1)N1CCc2[nH]cnc2[C@@H]1c1nc2cc(F)ccc2s1 [Example 2154] : ____
Response: > 5 µM

Query: I'd like to know its AC50. The compound in question is O=C(c1oc(-c2ccccn2)nc1C(F)(F)F)N1CCc2[nH]cnc2[C@@H]1c1nc2c(F)cccc2s1 [Example 1612]
Response: < 0.5 µM

Query: What value of AC50 has been recorded for this entry: O=C(Cc1ncc(C2CC2)s1)N1CCc2[nH]cnc2[C@H]1c1nc2ccccc2s1 [Example 1459]
Response: 0.5 to 1 µM

Query: Please give the measured AC50 for this compound: O=C(c1nccs1)N1CCc2[nH]cnc2[C@@H]1c1nc2cccc(Br)c2s1 [Example 1199]
Response: 1 to 5 µM
